# METHOD NOTES: Biodistribution of radiometal-DOTA-BBN conjugates in CF1 normal mice
# PARTICULARS: 1 hour post-injection
Parameter Avg % ID/gm, Muscle: see the listing below.
Give the quantity in % ID/gm, number only.

# Avg % ID/gm, Muscle lookup, item CSCC[C@H](NC(=O)[C@H](CC(C)C)NC(=O)[C@H](Cc1c[nH]cn1)NC(=O)CNC(=O)[C@@H](NC(=O)[C@H](C)NC(=O)[C@H](Cc1c[nH]c2ccccc12)NC(=O)[C@H](CCC(N)=O)NC(=O)CCCCCCCCCCNC(=O)CN1CCN(CC(=O)O)CCN(CC(=O)O)CCN(CC(=O)O)CC1)C(C)C)C(N)=O [111In-DOTA-11-Aun-BBN[7-14]NH2] [metal not drawn]
0.09

---

# METHOD NOTES: Biodistribution of radiometal-DOTA-BBN conjugates in CF1 normal mice
# PARTICULARS: 1 hour post-injection
READOUT KIND: Avg % ID/gm, Heart
Please append the unit to your numeric answer.

Reference set, count: 5
# MOLECULE, RESULT
records = [
    ("CSCC[C@H](NC(=O)[C@H](CC(C)C)NC(=O)[C@H](Cc1c[nH]cn1)NC(=O)CNC(=O)[C@@H](NC(=O)[C@H](C)NC(=O)[C@H](Cc1c[nH]c2ccccc12)NC(=O)[C@H](CCC(N)=O)NC(=O)CCCCCCCCCCNC(=O)CN1CCN(CC(=O)O)CCN(CC(=O)O)CCN(CC(=O)O)CC1)C(C)C)C(N)=O [177Lu-DOTA-11-Aun-BBN[7-14]NH2] [metal not drawn]", "1.56 ± 2.40 % ID/gm"),
    ("CSCC[C@H](NC(=O)[C@H](CC(C)C)NC(=O)[C@H](Cc1cnc[nH]1)NC(=O)CNC(=O)[C@@H](NC(=O)[C@H](C)NC(=O)[C@H](Cc1c[nH]c2ccccc12)NC(=O)[C@H](CCC(N)=O)NC(=O)CCNC(=O)CN1CCN(CC(=O)O)CCN(CC(=O)O)CCN(CC(=O)O)CC1)C(C)C)C(N)=O [149Pm-DOTA-β-Ala-BBN[7-14]NH2]", "0.17 ± 0.24 % ID/gm"),
    ("CSCC[C@H](NC(=O)[C@H](CC(C)C)NC(=O)[C@H](Cc1cnc[nH]1)NC(=O)CNC(=O)[C@@H](NC(=O)[C@H](C)NC(=O)[C@H](Cc1c[nH]c2ccccc12)NC(=O)[C@H](CCC(N)=O)NC(=O)CCCCCCCNC(=O)CN1CCN(CC(=O)O)CCN(CC(=O)O)CCN(CC(=O)O)CC1)C(C)C)C(N)=O [111In-DOTA-8-Aoc-BBN[7-14]NH2] [metal not drawn]", "0.05 ± 0.02 % ID/gm"),
    ("CSCC[C@H](NC(=O)[C@H](CC(C)C)NC(=O)[C@H](Cc1c[nH]cn1)NC(=O)CNC(=O)[C@@H](NC(=O)[C@H](C)NC(=O)[C@H](Cc1c[nH]c2ccccc12)NC(=O)[C@H](CCC(N)=O)NC(=O)CCCCNC(=O)CN1CCN(CC(=O)O)CCN(CC(=O)O)CCN(CC(=O)O)CC1)C(C)C)C(N)=O [111In-DOTA-5-Ava-BBN[7-14]NH2] [metal not drawn]", "0.10 ± 0.04 % ID/gm"),
    ("CSCC[C@H](NC(=O)[C@H](CC(C)C)NC(=O)[C@H](Cc1c[nH]cn1)NC(=O)CNC(=O)[C@@H](NC(=O)[C@H](C)NC(=O)[C@H](Cc1c[nH]c2ccccc12)NC(=O)[C@H](CCC(N)=O)NC(=O)CCCCCCCCCCNC(=O)CN1CCN(CC(=O)O)CCN(CC(=O)O)CCN(CC(=O)O)CC1)C(C)C)C(N)=O [111In-DOTA-11-Aun-BBN[7-14]NH2] [metal not drawn]", "0.13 ± 0.04 % ID/gm"),
]

# Avg % ID/gm, Heart lookup, item CSCC[C@H](NC(=O)[C@H](CC(C)C)NC(=O)[C@H](Cc1cnc[nH]1)NC(=O)CNC(=O)[C@@H](NC(=O)[C@H](C)NC(=O)[C@H](Cc1c[nH]c2ccccc12)NC(=O)[C@H](CCC(N)=O)NC(=O)CCNC(=O)CN1CCN(CC(=O)O)CCN(CC(=O)O)CCN(CC(=O)O)CC1)C(C)C)C(N)=O [111In-DOTA-β-Ala-BBN[7-14]NH2] [metal not drawn]
0.06 ± 0.04 % ID/gm
